Test system: Phosphorylated Ribosomal Protein S6 (RPS6) in THP-1 cells
Assay: THP-1 RPS6 ELISA Assay
Assay type: cell-based
Conditions: Homo sapiens; serum starved THP-1 cells, 2 hours with compound, then 10 nM MCP-1 for 15 minutes; Phospho-RPS6 ELISA; read-out: PI3Kγ_THP1_RPS6_ELISA IC50
pIC50: −log10 of the molar value. Counter-ions that a name gives are not always drawn.
pIC50 listing for selected molecules.

These solved cases illustrate the format of a correct answer.
>>> df
                                   molecule  metric  recorded_result
0  C[C@@H](C1CC1)N1Cc2cc(-c3cnc(N)c(C(=O)NC4CCOCC4)n3)ccc2C1=O [Example 1, trifluoroacetate salt]   pIC50           ≤ 6.00
1  CC(C)NC(=O)c1nc(-c2ccc3c(c2)CN([C@@H](C)C2CC2)C3=O)cnc1N [Example 2, trifluoroacetate salt]   pIC50           ≤ 6.00

Here is another molecule to look at.
Given the molecule Cc1n[nH]cc1-c1nc(-c2cc3c(c(S(C)(=O)=O)c2)C(=O)N([C@@H](C)C2CC2)C3)cnc1N [Example 10, trifluoroacetate salt] , what is its reported pIC50?
≤ 6.00

###

Biological target: PI3Kδ (p110δ/p85α) (Homo sapiens (Human))
Sequence (O00329 whole entry): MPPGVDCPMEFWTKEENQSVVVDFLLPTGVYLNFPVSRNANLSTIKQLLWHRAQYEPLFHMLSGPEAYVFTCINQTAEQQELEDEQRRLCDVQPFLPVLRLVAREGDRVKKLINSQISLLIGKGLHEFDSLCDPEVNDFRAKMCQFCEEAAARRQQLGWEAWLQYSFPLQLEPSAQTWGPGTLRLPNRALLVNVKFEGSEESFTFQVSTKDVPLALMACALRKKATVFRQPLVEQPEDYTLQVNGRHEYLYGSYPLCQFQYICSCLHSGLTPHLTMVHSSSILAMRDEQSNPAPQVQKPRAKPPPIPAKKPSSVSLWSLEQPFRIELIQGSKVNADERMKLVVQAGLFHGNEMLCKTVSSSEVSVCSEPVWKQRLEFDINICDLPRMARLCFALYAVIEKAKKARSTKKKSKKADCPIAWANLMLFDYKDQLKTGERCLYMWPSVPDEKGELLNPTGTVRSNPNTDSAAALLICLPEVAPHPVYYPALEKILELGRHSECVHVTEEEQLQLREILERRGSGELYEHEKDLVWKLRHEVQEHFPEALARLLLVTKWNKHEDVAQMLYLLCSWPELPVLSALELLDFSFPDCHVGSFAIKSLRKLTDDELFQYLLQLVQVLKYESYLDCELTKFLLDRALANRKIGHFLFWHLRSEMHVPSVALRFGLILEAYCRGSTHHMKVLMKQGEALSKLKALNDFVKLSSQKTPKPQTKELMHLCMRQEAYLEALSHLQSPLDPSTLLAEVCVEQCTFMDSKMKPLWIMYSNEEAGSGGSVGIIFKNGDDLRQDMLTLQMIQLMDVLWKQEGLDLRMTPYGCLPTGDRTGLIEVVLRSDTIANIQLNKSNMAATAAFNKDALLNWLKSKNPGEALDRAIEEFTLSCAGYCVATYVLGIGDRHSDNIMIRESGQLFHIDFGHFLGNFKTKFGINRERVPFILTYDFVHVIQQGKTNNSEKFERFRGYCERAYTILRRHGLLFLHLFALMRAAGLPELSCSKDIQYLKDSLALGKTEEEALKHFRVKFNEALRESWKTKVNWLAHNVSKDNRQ
Sequence (P27986 whole entry partner): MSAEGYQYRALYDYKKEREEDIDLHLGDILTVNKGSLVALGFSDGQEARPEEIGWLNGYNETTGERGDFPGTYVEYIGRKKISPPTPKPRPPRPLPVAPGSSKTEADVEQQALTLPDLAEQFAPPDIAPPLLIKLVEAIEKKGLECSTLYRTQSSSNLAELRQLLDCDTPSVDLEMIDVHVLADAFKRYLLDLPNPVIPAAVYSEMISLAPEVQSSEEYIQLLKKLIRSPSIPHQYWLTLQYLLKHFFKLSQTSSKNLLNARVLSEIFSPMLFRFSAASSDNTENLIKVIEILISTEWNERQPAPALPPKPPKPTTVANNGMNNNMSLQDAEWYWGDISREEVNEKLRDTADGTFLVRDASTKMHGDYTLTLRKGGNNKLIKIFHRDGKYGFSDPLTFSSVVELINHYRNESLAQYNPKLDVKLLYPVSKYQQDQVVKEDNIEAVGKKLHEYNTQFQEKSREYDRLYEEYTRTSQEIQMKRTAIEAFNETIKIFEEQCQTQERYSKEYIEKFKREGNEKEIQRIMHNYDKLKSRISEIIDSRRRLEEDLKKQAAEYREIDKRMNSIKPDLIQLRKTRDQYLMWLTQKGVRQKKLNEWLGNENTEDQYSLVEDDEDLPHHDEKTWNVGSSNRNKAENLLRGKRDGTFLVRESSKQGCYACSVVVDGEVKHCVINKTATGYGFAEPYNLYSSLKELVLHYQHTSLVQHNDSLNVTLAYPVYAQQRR
Assay: PI3Kδ Scintillation Proximity Assay
Format: biochemical
Settings: 20 μM PIP2, 2 μM ATP, 3.4 nM PI3Kδ, 120 min, room temperature
Structures can show the parent of a compound that is named as a salt.
IC50 listing for selected compounds.

These solved cases illustrate the format of a correct answer.
>>> df
                                   compound                       experimental_system  recorded_result
0  C[C@@H](C1CC1)N1Cc2cc(-c3cnc(N)c(-c4ccnn4C)n3)cc(S(C)(=O)=O)c2C1=O [Example 7, trifluoroacetate salt]  PI3Kδ (p110δ/p85α) (Homo sapiens (Human))   500 to 2000 nM
1  CC(C1CC1)n1nc2ccc(-c3cnc(N)cn3)cc2n1 (centres unmarked) [Example 6, trifluoroacetate]  PI3Kδ (p110δ/p85α) (Homo sapiens (Human))        ≥ 2000 nM
2  CC(C)NC(=O)c1nc(-c2cc3c(c(S(C)(=O)=O)c2)C(=O)N([C@@H](C)C2CC2)C3)cnc1N [Example 4, trifluoroacetate salt]  PI3Kδ (p110δ/p85α) (Homo sapiens (Human))   500 to 2000 nM
3  C[C@@H](C1CC1)N1Cc2cc(-c3cnc(N)c(-n4cncn4)n3)cc(S(C)(=O)=O)c2C1=O [Example 12, trifluoroacetate salt]  PI3Kδ (p110δ/p85α) (Homo sapiens (Human))   500 to 2000 nM

Here is another compound to look at.
Given the compound Cc1cc(-c2cnc(N)cn2)cc2cn(C(C)C3CC3)nc12 (centres unmarked) [Example 5, trifluoroacetate] , what is its reported IC50?
≥ 2000 nM
